Where do the numbers come from? From the supplement of paper PMC11865577.

Listing: pull-down binding Z-score of selected sequences
- System: TO-N3-2 (biotin conjugate)
- experiment description: pull-down binding Z-score (relative to library population); higher = stronger binding
- experimental setup: RNA library: Library-2

monomer sequence	measured on	pull-down binding Z-score
CCCGAGCUGGGCAGCAUGAAGGGCCUCGGG [hsa-mir-486-2]	TO-N3-2 (biotin conjugate)	1.49
UUCUGUUGUCAGAAAGAAGAGAA [hsa-mir-1283-1]	TO-N3-2 (biotin conjugate)	-0.0355
UAUUACAGAUCUUUACCAGGAGUUUUCUGUGGUG	TO-N3-2 (biotin conjugate)	-0.779
AUCAUGUAUAAUUAAAAAUGAU [hsa-mir-509-2_509-3_509-1]	TO-N3-2 (biotin conjugate)	-1
GGAAGGGAGCCCCAUUUACAGUGGUAACUUCCUUUCC [hsa-mir-5006]	TO-N3-2 (biotin conjugate)	0.181
AAAUCCGUGUUUGGACGCUUCUGGUA [hsa-mir-3936]	TO-N3-2 (biotin conjugate)	0.681
AGCCUCCAAACCUGUAGACAGGGUCAUGCAGUACUAGGGGCGAG [hsa-mir-4478]	TO-N3-2 (biotin conjugate)	0.966
GACAAUAUGUAUAAUGUUCAUAAGUCAUUC [hsa-mir-384]	TO-N3-2 (biotin conjugate)	-0.0426
GAGACAACUUCCCAGUCUC [hsa-mir-6717]	TO-N3-2 (biotin conjugate)	-0.848
UGGUUGGUUGGUUGGUUGGUUGGUUGGUUGGU [G4_r(UGGU)8]	TO-N3-2 (biotin conjugate)	5.6
GAUCCAGCCCAGGCUGGUUCCGCUGAC [hsa-mir-4522]	TO-N3-2 (biotin conjugate)	1.51
GUCUGAUAAUGGACCCCAAAAUCAGCGAAAUGCACCCCGCAUUACGUUUGGUGGACCCUCAGAU	TO-N3-2 (biotin conjugate)	-0.0686
ACCUGCUCAGUAUGAACUUAAGCAUGGU	TO-N3-2 (biotin conjugate)	-0.0122

* * *

- Tested on: TO-N3 (biotin conjugate)
- experiment description: pull-down binding Z-score (relative to library population); higher = stronger binding
- experimental setup: RNA library: Library-2
measured attribute: pull-down binding Z-score

monomer sequence	measured on	measured attribute	value
UGUUCACUUUCUAUAUGAUGAAUA [hsa-mir-656]	TO-N3 (biotin conjugate)	pull-down binding Z-score	-1.4
AGGAGGGUCC [hsa-mir-3141]	TO-N3 (biotin conjugate)	pull-down binding Z-score	0.766
UCUGUUGUCUGAAAGAAAACA [hsa-mir-518b_518c]	TO-N3 (biotin conjugate)	pull-down binding Z-score	-0.285
ACACUCUACGUGU	TO-N3 (biotin conjugate)	pull-down binding Z-score	-1.78
UAGUAGCUGGUGGUAUUGUAGCUAUCGUAGUAACAUGCCUUGCCUACUA [DMSMaPseq_invitro_SARS-CoV-2_Motif_172]	TO-N3 (biotin conjugate)	pull-down binding Z-score	-0.871
ACUCCCAGAACUCAUUAAGUUGGUAGU [hsa-mir-1278]	TO-N3 (biotin conjugate)	pull-down binding Z-score	-0.188
GGGGUCUUGCUCUAUU [hsa-mir-6088]	TO-N3 (biotin conjugate)	pull-down binding Z-score	0.572

* * *

- Test system: TO-3-N3 (biotin conjugate)
- experiment description: pull-down binding Z-score (relative to library population); higher = stronger binding
- experimental setup: RNA library: Library-2
Classification by pull-down binding Z-score | ranges: zone 1: < -0.2; zone 2: ≥ -0.2 and < 0.2; zone 3: ≥ 0.2

monomer sequence	group label
GUUAGUACAACUACUAAC [SHAPE_invivo_SARS-CoV-2_Motif_138]	zone 1
UAAGUUGUGAUCAUACCA [hsa-mir-1273g]	zone 1
UCAUUUAUGUGAACUAAAAUAUAAAUUU [hsa-mir-513a-2_513a-1]	zone 1
CCGCCCUCGUGUCUGUGGCGGUGG [hsa-mir-663a]	zone 2
GUCACUGUCUCAAAUCAGUGAC [hsa-mir-549a]	zone 2
UCCAGUGUGGCUCGGAGGCUGGA [hsa-mir-139]	zone 3
GUCUGUCACUGGGGAAGUC [hsa-mir-4682]	zone 3
ACAGACUUCAUUAAGAUGUGGUGCUUGCAUACGUAGACCAUUCUUAUGUUGUAAAUGCUGUUACGACCAUGUCAUAUCAACAUCACAUAAAUUAGUCUUGUCUGU	zone 1
GCCAGUGUUCAAGGGCCCCUCCUCUAGUACUCCCUGUUUGUGUUCUGCCACUGA [hsa-mir-6857]	zone 3
UCUAUACAGAACUGGA [SHAPE_invivo_SARS-CoV-2_Motif_242]	zone 3
CAUCAUAUGCAGCUUUUGCUACUGCUCAAGAAGCUUAUGAGCAGGCUGUUGCUAAUGGUG	zone 1
UGGGCAGUUCUUCUGCUGG [hsa-mir-1587]	zone 3
AUUAGACAGAAAAAAGUUAGACACAAAAAAUUGUGUCUAAU [hsa-mir-4759]	zone 3
CCUCAAUCACUUGCCAGAGAGAUUGG [hsa-mir-1200]	zone 2
GCCACAUGAGCUGGGCCUCGUGGGC [hsa-mir-770]	zone 3
AUUCUAUUCUAUUCUAUUCU [r(AUUCU)4]	zone 3
ACCUCGUCUAUGCUUUAAGGCAUUUUGAUGAAGGU	zone 2
